Overview of reported log2 fold change of degron read counts across a group of sequences:
- TESTED ON: T1, CRBN, Q96SW2;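 note: pooled lentiviral library of zinc finger degron-EGFP fusions in mCherry-positive Jurkat cells, FACS-sorted after compound exposure, with degron abundance counted by next-generation sequencing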
- T1 chain: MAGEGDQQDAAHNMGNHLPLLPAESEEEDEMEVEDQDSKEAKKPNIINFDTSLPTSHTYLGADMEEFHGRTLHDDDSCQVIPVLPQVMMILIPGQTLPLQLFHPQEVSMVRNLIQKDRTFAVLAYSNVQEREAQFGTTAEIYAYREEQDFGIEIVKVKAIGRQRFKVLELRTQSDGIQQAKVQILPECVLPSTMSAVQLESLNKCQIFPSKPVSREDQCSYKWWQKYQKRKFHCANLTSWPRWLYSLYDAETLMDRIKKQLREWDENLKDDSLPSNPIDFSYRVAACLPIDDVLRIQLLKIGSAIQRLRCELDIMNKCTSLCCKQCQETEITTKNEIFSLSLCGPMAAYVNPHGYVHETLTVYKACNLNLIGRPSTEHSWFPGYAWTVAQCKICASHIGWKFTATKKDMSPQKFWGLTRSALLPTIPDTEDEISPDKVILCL
- PROTOCOL DETAILS: log2 fold change of degron read counts, EGFP-low vs EGFP+ sorted cells (limma voom), compound-induced degradation; higher = more compound-induced degradation of the degron-EGFP fusion; degrons are variants of IKZF1/3 zinc finger 2; compound dose not given here
- CONDITION DESCRIPTION: Jurkat; 18 h; compound: compound 19 (5-tert-butyl-thalidomide)
Whole data set: some 8,300 sequences, median “log2 fold change of degron read counts, EGFP-low vs EGFP+ sorted cells (limma voom), compound-induced degradation” near -1.1, cut for the highest 2% near 3.2. Shown is part of a subset that was picked to be rich in the highest values.
PROPERTY LABEL: log2 fold change of degron read counts

1. FQCNICGAAFTQKGNLLRHIKL [46F_47Q_49N_50I_52G_53A_54A_55F_67L_, Q9UKT9] :: 1.01
2. FACPVCGAFFTQKGNLLRHIKL [46F_47A_49P_50V_52G_53A_54F_55F_67L_, Q9UKT9] :: 1.92
3. FGCPVCGAMFTQKGNLLRHIKL [46F_47G_49P_50V_52G_53A_54M_55F_67L_, Q9UKT9] :: 3.86
4. FICPICGAAFTQKGNLLRHIKL [46F_47I_49P_50I_52G_53A_54A_55F_67L_, Q9UKT9] :: 0.268
5. FACNICGAAFTQKGNLLRHIKL [46F_47A_49N_50I_52G_53A_54A_55F_67L_, Q9UKT9] :: 2.77
6. FSCDVCGAAFTQKGNLLRHIKL [46F_47S_49D_50V_52G_53A_54A_55F_67L_, Q9UKT9] :: 1.56
7. FECNICGAAFTQKGNLLRHIKL [46F_47E_49N_50I_52G_53A_54A_55F_67L_, Q9UKT9] :: 0.374
8. FNCPICGAAFTQKGNLLRHIKL [46F_47N_49P_50I_52G_53A_54A_55F_67L_, Q9UKT9] :: 2.96
9. FYCNICGAAFTQKGNLLRHIKL [46F_47Y_49N_50I_52G_53A_54A_55F_67L_, Q9UKT9] :: 2.66
10. FQCPICGAAFTQKGNLLRHIKL [46F_47Q_49P_50I_52G_53A_54A_55F_67L_, Q9UKT9] :: 2.65
11. FWCNICGACFTQKGNLLRHIKL [46F_47W_49N_50I_52G_53A_54C_55F_67L_, Q9UKT9] :: 2.95
12. FYCNICGACFTQKGNLLRHIKL [46F_47Y_49N_50I_52G_53A_54C_55F_67L_, Q9UKT9] :: 2.86
13. FSCNICGACFTQKGNLLRHIKL [46F_47S_49N_50I_52G_53A_54C_55F_67L_, Q9UKT9] :: 0.632
14. LDCPICGFWCTQKGNLLRHIKL [46L_47D_49P_50I_52G_53F_54W_55C_67L_, Q9UKT9] :: -0.559
15. FSCEICGHVFTQKGNLLRHIKL [46F_47S_49E_50I_52G_53H_54V_55F_67L_, Q9UKT9] :: -2.99
